# Test details: Fluorescence spectrum and fluorescence quantum yield of CTMD analogs at 750 nM (Example 1)
# Assay type: physicochemical
# Experimental context: fluorescence emission, 67 mM phosphate buffer pH 7.4, 750 nM, 25° C., excited at 330 nm
# λmax (PB)/nm per record follows
Measurement label: λmax (PB)/nm (nm)

[[record]]
compound = "O=S(=O)(Cc1ccccc1)Nc1ncc(-c2ccc(O)cc2)nc1Cc1ccccc1 [c-15]"
experimental_result = 435.5

[[record]]
compound = "CC(=O)Nc1ncc(-c2ccc(OC(C)=O)cc2)nc1Cc1ccccc1 [c-33]"
experimental_result = 384

[[record]]
compound = "COc1ccc(-c2cnc(N(S(=O)(=O)Cc3ccccc3)S(=O)(=O)Cc3ccccc3)c(Cc3ccccc3)n2)cc1 [c-21]"
experimental_result = 421.5

[[record]]
compound = "O=S(=O)(Cc1ccccc1)N(c1ncc(-c2ccccc2)nc1Cc1ccccc1)S(=O)(=O)Cc1ccccc1 [c-42]"
experimental_result = 420.5


---

# Test details: Fluorescence spectra at a final concentration of 30 μM (Example 2)
# Format: physicochemical
# Experimental context: phosphate buffer pH 7.4, 30 μM, excited at 330 nm
Measurement label: Fluorescence Intensity (PB)

[[record]]
molecule = "Oc1ccc(-c2cnc(NC(=S)Cc3ccccc3)c(Cc3ccccc3)n2)cc1 [c-14]"
experimental_result = 1.4

[[record]]
molecule = "CC(=O)Oc1ccc(-c2cnc(NC(=S)Cc3ccccc3)c(Cc3ccccc3)n2)cc1 [c-31]"
experimental_result = 1.7

[[record]]
molecule = "CC(=O)Nc1ncc(-c2ccc(O)cc2)nc1Cc1ccccc1 [c-25]"
experimental_result = 2.0

[[record]]
molecule = "O=C(Cc1ccc(O)cc1)Nc1ncc(-c2ccc(O)cc2)nc1Cc1ccccc1 [c-4, reference compound]"
experimental_result = 1.7

[[record]]
molecule = "O=[N+]([O-])c1ccc(S(=O)(=O)Nc2ncc(-c3ccc(O)cc3)nc2Cc2ccccc2)cc1 [c-36]"
experimental_result = 0.8


---

# Test details: Fluorescence spectra at a final concentration of 30 μM (Example 2)
# Format: physicochemical
# Experimental context: methanol, 30 μM, excited at 330 nm
Measurement label: Fluorescence Intensity (MeOH)

[[record]]
molecule = "Oc1ccc(-c2cnc(NC(=S)Cc3ccccc3)c(Cc3ccccc3)n2)cc1"
experimental_result = 6.5

[[record]]
molecule = "O=[N+]([O-])c1ccc(S(=O)(=O)Nc2ncc(-c3ccc(O)cc3)nc2Cc2ccccc2)cc1"
experimental_result = 3.6

[[record]]
molecule = "CC(=O)Oc1ccc(-c2cnc(NC(=S)Cc3ccccc3)c(Cc3ccccc3)n2)cc1"
experimental_result = 5.2

[[record]]
molecule = "O=C(Cc1ccc(O)cc1)Nc1ncc(-c2ccc(O)cc2)nc1Cc1ccccc1 [c-4, reference compound]"
experimental_result = 80.0


---

# Test details: Fluorescence spectrum and fluorescence quantum yield of CTMD analogs at 750 nM (Example 1)
# Format: physicochemical
# Experimental context: fluorescence emission, methanol, 750 nM, 25° C., excited at 330 nm
# Description: The fluorescence quantum yield of each CTMD analog synthesized was determined by the following procedure. The fluorescence spectrum was measured at 25° C. using a spectrofluorometer FP-6500 of JASCO (JASCO Corp., Tokyo). […] The average was taken as the fluorescence spectrum of the compound. The fluorescence quantum yield was determined after the spectrum was corrected. Quinine sulfate was used as a standard for determining the fluorescence quantum yield. […]
Measurement label: λmax (MeOH)/nm (nm)

[[record]]
smiles_repr = "COc1ccc(-c2cnc(NS(=O)(=O)Cc3ccccc3)c(Cc3ccccc3)n2)cc1"
experimental_result = 416.5

[[record]]
smiles_repr = "O=C(Cc1ccccc1)Nc1ncc(-c2ccc(O)cc2)nc1Cc1ccccc1"
experimental_result = 424.5

[[record]]
smiles_repr = "COc1ccc(-c2cnc(N(S(=O)(=O)Cc3ccccc3)S(=O)(=O)Cc3ccccc3)c(Cc3ccccc3)n2)cc1"
experimental_result = 417

[[record]]
smiles_repr = "CS(=O)(=O)Nc1ncc(-c2ccc(O)cc2)nc1Cc1ccccc1"
experimental_result = 429

[[record]]
smiles_repr = "CC(=O)Nc1ncc(-c2ccc(OC(C)=O)cc2)nc1Cc1ccccc1"
experimental_result = 375

[[record]]
smiles_repr = "Cc1ccc(S(=O)(=O)Nc2ncc(-c3ccc(O)cc3)nc2Cc2ccccc2)cc1"
experimental_result = 430.5

[[record]]
smiles_repr = "COc1ccc(-c2cnc(NC(C)=O)c(Cc3ccccc3)n2)cc1"
experimental_result = 415.5

[[record]]
smiles_repr = "O=S(=O)(Cc1ccccc1)Nc1ncc(-c2ccc(O)cc2)nc1Cc1ccccc1"
experimental_result = 429.5

